molecular target: pSTAT6 (Homo sapiens, UniProt P42226); construct: pY641-STAT6 MSD read-out; assay: MSD-pSTAT-PBMC Assay, pSTAT6 (IL-4 stimulated PBMC); type: cell-based; settings: read-out: pSTAT6 IC50, compound 3 hrs, then 1 ng/mL IL-4 for 10 min, pY641-STAT6
Sequence (P42226 whole entry): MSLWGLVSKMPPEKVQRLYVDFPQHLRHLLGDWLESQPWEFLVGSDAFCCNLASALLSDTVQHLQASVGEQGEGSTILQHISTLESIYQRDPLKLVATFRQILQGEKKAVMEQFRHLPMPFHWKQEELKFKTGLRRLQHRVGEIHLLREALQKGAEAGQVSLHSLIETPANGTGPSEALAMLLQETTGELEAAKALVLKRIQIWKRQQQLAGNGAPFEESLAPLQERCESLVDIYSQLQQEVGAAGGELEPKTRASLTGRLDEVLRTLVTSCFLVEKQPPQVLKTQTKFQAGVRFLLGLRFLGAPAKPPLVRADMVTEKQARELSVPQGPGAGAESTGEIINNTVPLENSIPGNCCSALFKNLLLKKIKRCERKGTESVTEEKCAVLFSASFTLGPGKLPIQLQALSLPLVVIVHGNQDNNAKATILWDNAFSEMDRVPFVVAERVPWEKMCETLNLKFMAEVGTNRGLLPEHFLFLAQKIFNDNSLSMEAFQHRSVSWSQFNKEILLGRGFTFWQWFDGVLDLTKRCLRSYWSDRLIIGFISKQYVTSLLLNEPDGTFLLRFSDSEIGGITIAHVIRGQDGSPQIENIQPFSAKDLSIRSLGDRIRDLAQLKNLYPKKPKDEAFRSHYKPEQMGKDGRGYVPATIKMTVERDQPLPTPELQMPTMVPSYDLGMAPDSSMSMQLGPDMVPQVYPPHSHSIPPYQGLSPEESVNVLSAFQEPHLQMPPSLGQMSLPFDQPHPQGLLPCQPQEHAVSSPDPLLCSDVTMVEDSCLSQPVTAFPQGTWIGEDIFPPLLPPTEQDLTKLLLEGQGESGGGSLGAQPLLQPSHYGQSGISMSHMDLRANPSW
List of IC50 values.

Some entries whose results are on file:
Molecule: CCCC(=O)SCCOP(=O)(OCCSC(=O)CCC)C(F)(F)c1ccc2ccc(C(=O)N[C@H]3CN(C(=O)c4n[nH]c5ccc(C)cc45)CC[C@H]4CC[C@@H](C(=O)N(C)CCCCCCC#Cc5cccc6c5CN(C5CCC(=O)NC5=O)C6=O)N4C3=O)cc2c1 (some centres unmarked) [Compound 12]
Recorded measurement: < 100 nM
--
Molecule: CCCOC(=O)[C@H](C)NP(=O)(Oc1ccccc1)C(F)c1ccc2ccc(C(=O)N[C@H]3CN(C(=O)c4n[nH]c5ccc(C)cc45)CC[C@H]4CC[C@@H](C(=O)N(C)CCCCCCC#Cc5cccc6c5CN(C5CCC(=O)NC5=O)C6=O)N4C3=O)cc2c1 (some centres unmarked) [Compound 13]
Recorded measurement: > 3000 nM
--
Molecule: CCCOC(=O)[C@H](C)NP(=O)(Oc1ccccc1)C(F)c1ccc2ccc(C(=O)N[C@H]3CN(C(=O)c4noc5ccc(C)cc45)CC[C@H]4CC[C@@H](C(=O)N(C)CCCCCCC#Cc5cccc6c5CN(C5CCC(=O)NC5=O)C6=O)N4C3=O)cc2c1 (some centres unmarked) [Compound 26]
Recorded measurement: > 3000 nM

Query: IC50; subject: Cc1ccc2[nH]nc(C(=O)N3CC[C@H]4CC[C@@H](C(=O)N(C)CCCCCCC#Cc5cccc6c5CN(C5CCC(=O)NC5=O)C6=O)N4C(=O)[C@@H](NC(=O)c4ccc5ccc(C(F)(F)P(=O)(O)O)cc5c4)C3)c2c1 (some centres unmarked) [Compound 11]
100 to 1000 nM

Query: IC50; subject: CN(C(=O)[C@@H]1CC[C@@H]2CCN(C(=O)CCCCCC#Cc3cccc4c3CN(C3CCC(=O)NC3=O)C4=O)C[C@H](NC(=O)c3cc4cc(C(F)(F)P(=O)(OCOC(=O)C(C)(C)C)OCOC(=O)C(C)(C)C)ccc4[nH]3)C(=O)N21)c1ccccc1 (some centres unmarked) [Compound 2]
1000 to 3000 nM

---

target: STAT3 (Homo sapiens); construct: Recombinant STAT3 protein (STAT3(G127-1722)); assay: STAT3 Fluorescence Polarization (FP) Assay; assay type: binding; conditions: recombinant STAT3 25 nM; probe 5-FAM-GpYLPQTV-NH2 2 nM; 45 min, room temperature; read-out: STAT3 FP IC50
Sequence (P40763 127-722 limits assumed): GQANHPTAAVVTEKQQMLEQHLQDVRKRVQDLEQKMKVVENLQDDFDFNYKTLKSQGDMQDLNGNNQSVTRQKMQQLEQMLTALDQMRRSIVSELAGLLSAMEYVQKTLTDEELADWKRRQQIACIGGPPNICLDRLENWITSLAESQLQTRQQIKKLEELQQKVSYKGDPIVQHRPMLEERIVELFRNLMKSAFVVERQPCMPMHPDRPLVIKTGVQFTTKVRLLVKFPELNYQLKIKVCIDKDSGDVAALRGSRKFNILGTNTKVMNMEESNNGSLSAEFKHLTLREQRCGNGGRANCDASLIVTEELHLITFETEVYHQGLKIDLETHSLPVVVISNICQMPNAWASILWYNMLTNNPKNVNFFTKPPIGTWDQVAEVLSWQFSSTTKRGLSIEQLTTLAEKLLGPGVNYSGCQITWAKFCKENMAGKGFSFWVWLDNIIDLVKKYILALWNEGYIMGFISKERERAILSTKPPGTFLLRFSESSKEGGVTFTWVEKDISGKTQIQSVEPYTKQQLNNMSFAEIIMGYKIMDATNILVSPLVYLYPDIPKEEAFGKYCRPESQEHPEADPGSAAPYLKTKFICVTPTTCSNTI
pIC50: −log10 of the molar value.
Attribute measured: pIC50

Some entries whose results are on file:
Molecule: CC(=O)N[C@H](C(=O)N1C[C@H](O)C[C@H]1C(=O)NCc1ccc(-c2scnc2C)cc1OCCCCN(C)C(=O)[C@@H]1CC[C@@H]2CCN(C(=O)c3noc4ccc(C)cc34)C[C@H](NC(=O)c3ccc4ccc(C(F)(F)P(=O)(O)O)cc4c3)C(=O)N21)C(C)(C)C [Compound 31]
pIC50: 5.00 to 6.00
--
Molecule: Cc1ccc2onc(C(=O)N3CC[C@H]4CC[C@@H](C(=O)NCCOc5cc(C(C(=O)N6C[C@H](O)C[C@H]6C(=O)N[C@H](C)c6ccc(-c7scnc7C)cc6)C(C)C)on5)N4C(=O)[C@@H](NC(=O)c4ccc5ccc(C(F)(F)P(=O)(O)O)cc5c4)C3)c2c1 (some centres unmarked) [Compound 32]
pIC50: 5.00 to 6.00

Query: pIC50; subject: Cc1ccc2onc(C(=O)N3CC[C@H]4CC[C@@H](C(=O)Nc5cccc6c5CN(C5CCC(=O)NC5=O)C6=O)N4C(=O)[C@@H](NC(=O)c4ccc5ccc(C(F)(F)P(=O)(O)O)cc5c4)C3)c2c1 (some centres unmarked) [Compound 35]
< 5.00

Query: pIC50; subject: Cc1ccc2onc(C(=O)N3CC[C@H]4CC[C@@H](C(=O)N(C)CCCCCCC#Cc5cccc6c5CN(C5CCC(=O)NC5=O)C6=O)N4C(=O)[C@@H](NC(=O)c4ccc5ccc(C(F)P(=O)(O)O)cc5c4)C3)c2c1 (some centres unmarked) [Compound 40]
< 5.00

Query: pIC50; subject: Cc1ccc2onc(C(=O)N3CC[C@H]4CC[C@@H](C(=O)N(C)CCCC(=O)N[C@H](C(=O)N5C[C@H](O)C[C@H]5C(=O)N[C@@H](C)c5ccc(-c6scnc6C)cc5)C(C)(C)C)N4C(=O)[C@@H](NC(=O)c4ccc5ccc(C(F)(F)P(=O)(O)O)cc5c4)C3)c2c1 [Compound 29]
5.00 to 6.00

Query: pIC50; subject: Cc1ccc2onc(C(=O)N3CC[C@H]4CC[C@@H](C(=O)N(C)CCC#Cc5cccc6c5CN(C5CCC(=O)NC5=O)C6=O)N4C(=O)[C@@H](NC(=O)c4ccc5ccc(C(F)(F)P(=O)(O)O)cc5c4)C3)c2c1 (some centres unmarked) [Compound 28]
5.00 to 6.00

Query: pIC50; subject: Cc1ccc2onc(C(=O)N3CC[C@H]4CC[C@@H](C(=O)N5CCN(c6cccc7c6[nH]c(=O)n7C6CCC(=O)NC6=O)CC5)N4C(=O)[C@@H](NC(=O)c4ccc5ccc(C(F)(F)P(=O)(O)O)cc5c4)C3)c2c1 (some centres unmarked) [Compound 36]
5.00 to 6.00

Query: pIC50; subject: Cc1ccc2onc(C(=O)N3CC[C@H]4CC[C@@H](C(=O)N(C)CCCCOc5ccc(C6CCC(=O)NC6=O)cc5)N4C(=O)[C@@H](NC(=O)c4ccc5ccc(C(F)(F)P(=O)(O)O)cc5c4)C3)c2c1 (some centres unmarked) [Compound 30]
5.00 to 6.00
